remaining activity at 3 µM values by entry
target-system: PADI4 (Homo sapiens)
Construct: His6; made in house
Sequence (Q9UM07 whole entry): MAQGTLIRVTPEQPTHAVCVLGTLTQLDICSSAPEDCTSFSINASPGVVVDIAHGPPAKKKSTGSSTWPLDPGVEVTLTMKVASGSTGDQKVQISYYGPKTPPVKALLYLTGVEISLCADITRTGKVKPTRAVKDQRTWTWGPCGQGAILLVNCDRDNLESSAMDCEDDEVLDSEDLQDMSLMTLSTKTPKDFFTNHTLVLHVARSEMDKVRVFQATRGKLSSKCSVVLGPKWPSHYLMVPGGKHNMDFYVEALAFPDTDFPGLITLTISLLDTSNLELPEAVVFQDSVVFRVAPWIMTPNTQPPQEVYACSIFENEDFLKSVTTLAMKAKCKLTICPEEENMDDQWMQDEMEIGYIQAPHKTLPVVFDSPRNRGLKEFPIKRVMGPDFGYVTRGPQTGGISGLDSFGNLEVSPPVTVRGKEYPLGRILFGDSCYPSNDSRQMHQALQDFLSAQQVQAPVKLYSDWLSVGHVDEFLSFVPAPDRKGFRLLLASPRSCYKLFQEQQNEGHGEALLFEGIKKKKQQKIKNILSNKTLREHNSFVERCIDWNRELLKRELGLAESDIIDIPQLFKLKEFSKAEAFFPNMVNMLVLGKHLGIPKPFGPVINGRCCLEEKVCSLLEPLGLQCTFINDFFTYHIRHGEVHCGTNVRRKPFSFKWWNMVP
protocol-notes: COLDER inhibition assay, BAEE substrate, with or without 1 h preincubation
Assay type: biochemical
experimental-context: peptide 3 µM, T=0; read-out: PADI4 activity normalised to 0.1% DMSO
Where a SMILES comes first, the peptide text is derived from it. Bridges are numbered along the chain shown (N, C = ends). [ ]: non-standard residue; d: D form. Orn(fluoroacetimidoyl) = N=C(CF)NCCC[C@H](N)C(=O)O
# value in %; strip the unit string

Ask | Field request: remaining activity at 3 µM | item: CC(C)C[C@@H]1NC(=O)[C@H](CCCCN)NC(=O)[C@H](CO)NC(=O)[C@H](CO)NC(=O)[C@H](Cc2ccc(O)cc2)NC(=O)[C@H](Cc2c[nH]cn2)NC(=O)[C@H](CCCNC(=N)CF)NC(=O)[C@H](CC(=O)O)NC(=O)[C@H](CC(C)C)NC(=O)[C@@H](Cc2ccc(O)cc2)NC(=O)CSC[C@@H](C(=O)NCC(N)=O)NC(=O)[C@H](Cc2ccc(O)cc2)NC1=O [cP4_15, yLD(2)HYSSKLYCG] ({CH2CO}-[dY]LD[Orn(fluoroacetimidoyl)]HYSSKLYCG-NH2; thioether N-12)
Reply | 32.3
